Record form. Attribute: α-human koff. Fill in for each entry.
Biological target: T1, human α-CGRP (Homo sapiens, UniProt P06881)
T1 construct: 1-37 (WT); purchased; host or cells: synthetic peptide
T1 sequence (P06881 83-119 limits assumed): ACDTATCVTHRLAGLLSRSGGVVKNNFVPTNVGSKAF
Experiment: Biacore affinity of antibody G1 Fab and variants to human α-CGRP
Type: binding
Conditions: 37° C., Fab, screening mode unless underlined
Answers are plain numbers, in s⁻¹.

Completed entries (count: 5):
# molecule, α-human koff / s⁻¹
measured = [
    ("M83: G1 variant: L1 R28N,T30V; L2 A51H,L56T; H2 E54K,A57N,S58M,H61F; HC-FW3 L991 (printed),A100V (antibody, V domains shown) VH: EVQLVESGGGLVQPGGSLRLSCAASGFTFSNYWISWVRQAPGKGLEWVAEIRSKSDNMATFYAEAVKGRFTISRDNAKNSLYLQMNSLRAEDTAVYYCTVYFDYGLAIQNYWGQGTLVTVSS VL: EIVLTQSPATLSLSPGERATLSCKASKNVVTYVSWYQQKPGQAPRLLIYGHSNRYTGIPARFSGSGSGTDFTLTISSLEPEDFAVYYCSQSYNYPYTFGQGTKLEIK", 0.000933),
    ("M62: G1 variant: L1 R28N,T30G; L2 A51H,L56T; H2 E54K,A57N,S58E; HC-FW3 L99T,A100V (antibody, V domains shown) VH: EVQLVESGGGLVQPGGSLRLSCAASGFTFSNYWISWVRQAPGKGLEWVAEIRSKSDNEATHYAEAVKGRFTISRDNAKNSLYLQMNSLRAEDTAVYYCTVYFDYGLAIQNYWGQGTLVTVSS VL: EIVLTQSPATLSLSPGERATLSCKASKNVGTYVSWYQQKPGQAPRLLIYGHSNRYTGIPARFSGSGSGTDFTLTISSLEPEDFAVYYCSQSYNYPYTFGQGTKLEIK", 0.000557),
    ("M78: G1 variant: L1 R28N,T30S; L2 G50A,L56T; H2 E54K,A57N,S58T; HC-FW3 L99T,A100V (antibody, V domains shown) VH: EVQLVESGGGLVQPGGSLRLSCAASGFTFSNYWISWVRQAPGKGLEWVAEIRSKSDNTATHYAEAVKGRFTISRDNAKNSLYLQMNSLRAEDTAVYYCTVYFDYGLAIQNYWGQGTLVTVSS VL: EIVLTQSPATLSLSPGERATLSCKASKNVSTYVSWYQQKPGQAPRLLIYAASNRYTGIPARFSGSGSGTDFTLTISSLEPEDFAVYYCSQSYNYPYTFGQGTKLEIK", 0.00131),
    ("M35: G1 variant: L1 R28N,T30G; H2 E54K,A57S; HC-FW3 L99T,A100V (antibody, V domains shown) VH: EVQLVESGGGLVQPGGSLRLSCAASGFTFSNYWISWVRQAPGKGLEWVAEIRSKSDSSATHYAEAVKGRFTISRDNAKNSLYLQMNSLRAEDTAVYYCTVYFDYGLAIQNYWGQGTLVTVSS VL: EIVLTQSPATLSLSPGERATLSCKASKNVGTYVSWYQQKPGQAPRLLIYGASNRYLGIPARFSGSGSGTDFTLTISSLEPEDFAVYYCSQSYNYPYTFGQGTKLEIK", 0.000339),
    ("M55: G1 variant: L1 R28N,T30A; L2 L56S; H2 E54K,A57N,S58E,E64D; HC-FW3 L99T,A100V (antibody, V domains shown) VH: EVQLVESGGGLVQPGGSLRLSCAASGFTFSNYWISWVRQAPGKGLEWVAEIRSKSDNEATHYADAVKGRFTISRDNAKNSLYLQMNSLRAEDTAVYYCTVYFDYGLAIQNYWGQGTLVTVSS VL: EIVLTQSPATLSLSPGERATLSCKASKNVATYVSWYQQKPGQAPRLLIYGASNRYSGIPARFSGSGSGTDFTLTISSLEPEDFAVYYCSQSYNYPYTFGQGTKLEIK", 0.000478),
]

Parameters: items (list). Returns: α-human koff for each item.
1. M53: G1 variant: L1 R28N; L2 L56I; H2 E54K,A57N,S58G; HC-FW3 L99T,A100V (antibody, V domains shown) VH: EVQLVESGGGLVQPGGSLRLSCAASGFTFSNYWISWVRQAPGKGLEWVAEIRSKSDNGATHYAEAVKGRFTISRDNAKNSLYLQMNSLRAEDTAVYYCTVYFDYGLAIQNYWGQGTLVTVSS VL: EIVLTQSPATLSLSPGERATLSCKASKNVTTYVSWYQQKPGQAPRLLIYGASNRYIGIPARFSGSGSGTDFTLTISSLEPEDFAVYYCSQSYNYPYTFGQGTKLEIK
2. M47: G1 variant: L1 R28N; L2 G50A,L56T; H2 E54K,A57N,S58G; HC-FW3 L99T,A100V (antibody, V domains shown) VH: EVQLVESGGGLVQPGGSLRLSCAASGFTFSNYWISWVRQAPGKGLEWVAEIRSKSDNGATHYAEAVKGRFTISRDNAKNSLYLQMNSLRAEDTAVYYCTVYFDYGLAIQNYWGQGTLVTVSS VL: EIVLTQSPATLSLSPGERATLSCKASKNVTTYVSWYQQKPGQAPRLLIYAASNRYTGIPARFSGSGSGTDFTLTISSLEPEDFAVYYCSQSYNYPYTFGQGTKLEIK
3. M58: G1 variant: L1 R28N,T30D; L2 L56S; H2 E54K,A57N,S58I,H61F; HC-FW3 L99T,A100V (antibody, V domains shown) VH: EVQLVESGGGLVQPGGSLRLSCAASGFTFSNYWISWVRQAPGKGLEWVAEIRSKSDNIATFYAEAVKGRFTISRDNAKNSLYLQMNSLRAEDTAVYYCTVYFDYGLAIQNYWGQGTLVTVSS VL: EIVLTQSPATLSLSPGERATLSCKASKNVDTYVSWYQQKPGQAPRLLIYGASNRYSGIPARFSGSGSGTDFTLTISSLEPEDFAVYYCSQSYNYPYTFGQGTKLEIK

1: 0.000374; 2: 0.000332; 3: 0.00195
